B1: library; a variant is named by its letters at N, in order (parent)
chain: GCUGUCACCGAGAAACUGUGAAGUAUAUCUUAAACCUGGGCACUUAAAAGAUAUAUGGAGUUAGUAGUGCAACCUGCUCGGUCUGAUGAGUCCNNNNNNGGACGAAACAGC

variants of: B1; test: FACS-Seq fitted mean relative fluorescence mCherry/BFP without ligand (log10 relative fluorescence); HEK293T; ligand: cyclic di-GMP (c-di-GMP-II aptamer); higher = higher reporter protein expression; conditions: ligand present: no
Readout kind: FACS-Seq fitted mean (log10)
One number for each entry.

A selection of reference data follows.
GCAGGU    -0.184
CGCAUA    -0.777
ACUGAA    -0.493
CUUCUA    -0.605

Count: 2. Required value per item: FACS-Seq fitted mean (log10).
1. GUAGUA
2. GUUAGG

Ans.
1. -0.69
2. -0.197
